Attribute: Ki
Tested target: Beta-lactamase (Bacillus licheniformis)
Sequence (P00808 whole entry): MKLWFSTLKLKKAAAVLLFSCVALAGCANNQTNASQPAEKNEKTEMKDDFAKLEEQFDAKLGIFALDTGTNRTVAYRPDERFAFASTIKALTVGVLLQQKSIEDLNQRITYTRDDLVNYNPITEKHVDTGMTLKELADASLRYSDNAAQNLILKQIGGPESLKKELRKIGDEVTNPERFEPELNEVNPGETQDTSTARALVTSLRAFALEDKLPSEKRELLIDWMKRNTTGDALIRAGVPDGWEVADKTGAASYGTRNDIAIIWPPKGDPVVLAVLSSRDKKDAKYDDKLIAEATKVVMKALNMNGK
Experiment summary: Inhibition of Bacillus licheniformis BS3 beta-lactamase at pH 5
Answer format: numeric, µM implied, no suffix.

O=C(O)CC(C(=O)O)C(O)C(=O)O (configuration not stated) [ISOCITRATE]: 2200

// below: Ki requested for another molecule
Name the reported Ki value associated with the molecule O=C(O)CC(O)(CC(=O)O)C(=O)O
490

* * *

Tested target: Beta-lactamase OXA-10 (Pseudomonas aeruginosa)
Experiment summary: Inhibition of Pseudomonas aeruginosa OXA10 beta-lactamase assessed as residual activity at 100 uM at pH 5 using acetate buffer by spectrophotometry; values are per cent of control
Metric name: residual activity (%)
Answer format: numeric, % implied, no suffix.

In the examples that follow, each entry is paired with its recorded residual activity.
O=C(O)CC(CC(=O)O)(NC(=O)COc1ccccc1)C(=O)O: 82
CCOC(=O)CCC1(C(=O)OCC)CCC(=O)N1 (stereo unspecified): 98
COC(=O)CC(N)(CC(=O)OC)C(=O)O: 79
COC(=O)C(N)(CC(=O)O)CC(=O)O: 83
CCOC(=O)C1CC(=O)NC1C(=O)OCC (stereo unspecified): 87

// below: residual activity requested for another molecule
# returns recorded residual activity (system: Beta-lactamase OXA-10 (Pseudomonas aeruginosa)) for NC(C(=O)O)C(CC(=O)O)C(=O)O (stereo unspecified)
85

* * *

Tested target: Imipenem-hydrolyzing beta-lactamase (Enterobacter cloacae)
Experiment summary: Inhibition of Enterobacter cloacae NMCA beta-lactamase assessed as residual activity at 100 uM at pH 5 using acetate buffer by spectrophotometry; values are per cent of control
Attribute: residual activity
Reply with the number, then its unit.

In the examples that follow, each entry is paired with its recorded residual activity.
CCOC(=O)CCC1(C(=O)OCC)CCC(=O)N1 (stereo unspecified): 100%
NC(C(=O)O)C(CC(=O)O)C(=O)O (stereo unspecified): 86%
COC(=O)C(N)(CC(=O)O)CC(=O)O: 96%
CCOC(=O)C1CC(=O)NC1C(=O)OCC (stereo unspecified): 93%
O=C(O)CC(CC(=O)O)(NC(=O)COc1ccccc1)C(=O)O: 85%

// below: residual activity requested for another compound
Name the reported residual activity value associated with the compound COC(=O)CC(N)(CC(=O)OC)C(=O)O
99%

* * *

Tested target: Beta-lactamase (Bacillus licheniformis)
Experiment summary: Inhibition of Bacillus licheniformis BS3 beta-lactamase assessed as residual activity at 100 uM at pH 5 using acetate buffer by spectrophotometry; values are per cent of control
Attribute: residual activity
Answer format: numeric, % implied, no suffix.

NC(C(=O)O)C(CC(=O)O)C(=O)O (stereo unspecified): 97
CCOC(=O)CCC1(C(=O)OCC)CCC(=O)N1 (stereo unspecified): 96
CCOC(=O)C1CC(=O)NC1C(=O)OCC (stereo unspecified): 100
O=C(O)CC(CC(=O)O)(NC(=O)COc1ccccc1)C(=O)O: 70
COC(=O)C(N)(CC(=O)O)CC(=O)O: 97

// below: residual activity requested for another molecule
Name the reported residual activity value associated with the molecule COC(=O)CC(N)(CC(=O)OC)C(=O)O
100

* * *

Attribute: residual activity
Tested target: Beta-lactamase OXA-10 (Pseudomonas aeruginosa)
Experiment summary: Inhibition of Pseudomonas aeruginosa OXA10 beta-lactamase assessed as residual activity at 100 uM at pH 7 using phosphate buffer by spectrophotometry; values are per cent of control
Answer format: numeric, % implied, no suffix.

COC(=O)C(CC(=O)O)(CC(=O)O)NC(=O)COc1ccccc1: 100
O=C(COc1ccccc1)NC(CC(=O)OCc1ccccc1)(CC(=O)OCc1ccccc1)C(=O)OCc1ccccc1: 10
COC(=O)C(N)(CC(=O)OCc1ccccc1)CC(=O)OCc1ccccc1: 100
NC(C(=O)O)C(CC(=O)O)C(=O)O (configuration not stated): 92
O=C(O)CC(CC(=O)O)(NC(=O)COc1ccccc1)C(=O)O: 84
COC(=O)C(N)(CC(=O)O)CC(=O)O: 96
COC(=O)C(CC(=O)OCc1ccccc1)(CC(=O)OCc1ccccc1)NC(=O)COc1ccccc1: 10
COC(=O)CC(N)(CC(=O)OC)C(=O)OCc1ccccc1: 100
NC(CC(=O)OCc1ccccc1)(CC(=O)OCc1ccccc1)C(=O)OCc1ccccc1: 10
COC(=O)CC(N)(CC(=O)OC)C(=O)O: 100

Name the reported residual activity value associated with the compound CCOC(=O)C1CC(=O)NC1C(=O)OCC (configuration not stated)
91

Same question for CCOC(=O)CCC1(C(=O)OCC)CCC(=O)N1 (configuration not stated) please.
97

* * *

System: Bacillus cereus
Experiment summary: Inhibition of Bacillus cereus BC2 beta-lactamase assessed as residual activity at 100 uM at pH 5 using acetate buffer by spectrophotometry; values are per cent of control
Metric name: residual activity
Reply with the number, then its unit.

CCOC(=O)CC(N)(CC(=O)OCC)C(=O)OCC: 93%
COC(=O)C(N)(CC(=O)OCc1ccccc1)CC(=O)OCc1ccccc1: 93%
CCOC(=O)CCC1(C(=O)OCC)CCC(=O)N1 (stereo unspecified): 100%

Name the reported residual activity value associated with the molecule COC(=O)CC(N)(CC(=O)OC)C(=O)OCc1ccccc1
100%

Same question for CCOC(=O)C1CC(=O)NC1C(=O)OCC (stereo unspecified) please.
100%

Same question for COC(=O)CC(N)(CC(=O)OC)C(=O)O please.
100%

* * *

Tested target: Imipenem-hydrolyzing beta-lactamase (Enterobacter cloacae) (UniProt P52663)
Sequence (whole entry): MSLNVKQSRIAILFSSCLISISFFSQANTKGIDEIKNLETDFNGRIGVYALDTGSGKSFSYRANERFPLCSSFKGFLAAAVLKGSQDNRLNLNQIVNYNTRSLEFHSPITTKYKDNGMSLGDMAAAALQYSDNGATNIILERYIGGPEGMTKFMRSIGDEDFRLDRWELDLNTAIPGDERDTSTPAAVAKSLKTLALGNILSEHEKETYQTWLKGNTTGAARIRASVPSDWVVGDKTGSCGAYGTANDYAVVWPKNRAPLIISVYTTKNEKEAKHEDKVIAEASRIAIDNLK
Experiment summary: Inhibition of Enterobacter cloacae NMCA beta-lactamase assessed as residual activity at 100 uM at pH 7 using phosphate buffer by spectrophotometry; values are per cent of control
Attribute: residual activity
Answer format: numeric, % implied, no suffix.

In the examples that follow, each entry is paired with its recorded residual activity.
O=C(O)CC(CC(=O)O)(NC(=O)COc1ccccc1)C(=O)O: 96
COC(=O)CC(N)(CC(=O)OC)C(=O)O: 95
COC(=O)C(N)(CC(=O)OCc1ccccc1)CC(=O)OCc1ccccc1: 63
NC(C(=O)O)C(CC(=O)O)C(=O)O (stereo not drawn): 100

Name the reported residual activity value associated with the molecule CCOC(=O)CCC1(C(=O)OCC)CCC(=O)N1 (stereo not drawn)
100

* * *

Tested target: Beta-lactamase (Bacillus licheniformis) (UniProt P00808)
Sequence (P00808 whole entry): as the sequence (P00808 whole entry) above
Experiment summary: Inhibition of Bacillus licheniformis BS3 beta-lactamase assessed as residual activity at 100 uM at pH 7 using phosphate buffer by spectrophotometry; values are per cent of control
Attribute: residual activity
Answer format: numeric, % implied, no suffix.

In the examples that follow, each entry is paired with its recorded residual activity.
COC(=O)C(CC(=O)O)(CC(=O)O)NC(=O)COc1ccccc1: 96
CCOC(=O)C1CC(=O)NC1C(=O)OCC (stereo not given): 100
COC(=O)C(N)(CC(=O)O)CC(=O)O: 96
COC(=O)CC(N)(CC(=O)OC)C(=O)O: 95

// below: residual activity requested for another compound
Name the reported residual activity value associated with the compound NC(C(=O)O)C(CC(=O)O)C(=O)O (stereo not given)
85

* * *

Experiment summary: Inhibition of TEM1 beta-lactamase assessed as residual activity at 100 uM at pH 7 using phosphate buffer by spectrophotometry; values are per cent of control
Metric name: residual activity
Reply with the number, then its unit.

CCOC(=O)CCC1(C(=O)OCC)CCC(=O)N1 (stereo unspecified): 94%
CCOC(=O)C1CC(=O)NC1C(=O)OCC (stereo unspecified): 100%
COC(=O)C(CC(=O)O)(CC(=O)O)NC(=O)COc1ccccc1: 98%
COC(=O)C(N)(CC(=O)O)CC(=O)O: 99%
NC(CC(=O)OCc1ccccc1)(CC(=O)OCc1ccccc1)C(=O)OCc1ccccc1: 100%

Name the reported residual activity value associated with the compound COC(=O)CC(N)(CC(=O)OC)C(=O)O
99%

Same question for O=C(O)CC(CC(=O)O)(NC(=O)COc1ccccc1)C(=O)O please.
96%

Same question for NC(C(=O)O)C(CC(=O)O)C(=O)O (stereo unspecified) please.
100%

Same question for NC(CC(=O)O)(CC(=O)O)C(=O)O please.
95%

Same question for CCOC(=O)CC(N)(CC(=O)OCC)C(=O)OCC please.
71%

Same question for COC(=O)C(N)(CC(=O)OCc1ccccc1)CC(=O)OCc1ccccc1 please.
81%

These entries and their values trace back to ChEMBL document CHEMBL1158443.
